Test: surface tension of aqueous surfactant solutions and critical micelle concentration (K-12 Processor Tensiometer)
Assay type: physicochemical
Conditions: deionized water; Table 3
Measured Surf. Tens. at the CMC values are reported for all entries that follow.
Observable: Surf. Tens. at the CMC (dynes/cm)

- Molecule: "C[N+](C)([O-])CCCNC(=O)C(F)(C(F)(F)F)C(F)(F)C(F)(F)C(F)(F)C(F)(F)C(F)(F)C(F)(F)C(F)(F)F (stereo not drawn) [Example E1, C7 F15 CF(CF3)CONH(CH2)3 N^+ (CH3)2 O^-]"
  Reported Value: 16.3
- Molecule: "O=C(NCCOC(=O)C(F)(C(F)(F)F)C(F)(F)C(F)(F)C(F)(F)C(F)(F)C(F)(F)C(F)(F)C(F)(F)F)c1cc[n+]([O-])cc1 (stereo not drawn)"
  Reported Value: 14.5
- Molecule: "C[N+](C)(CCO)CCCNC(=O)C(F)(C(F)(F)F)C(F)(F)C(F)(F)C(F)(F)C(F)(F)C(F)(F)F (stereo not drawn)"
  Reported Value: 17.0
- Molecule: "C[n+]1ccc(C(=O)NCCOC(=O)C(F)(C(F)(F)F)C(F)(F)C(F)(F)C(F)(F)C(F)(F)C(F)(F)C(F)(F)F)cc1 (stereo not drawn)"
  Reported Value: 15.5
- Molecule: "O=C(OCCc1cccc[n+]1[O-])C(F)(C(F)(F)F)C(F)(F)C(F)(F)C(F)(F)C(F)(F)C(F)(F)C(F)(F)C(F)(F)F (stereo not drawn)"
  Reported Value: 15.0
- Molecule: "C[N+](C)([O-])CCCNC(=O)C(F)(C(F)(F)F)C(F)(F)C(F)(F)C(F)(F)C(F)(F)C(F)(F)C(F)(F)F (stereo not drawn)"
  Reported Value: 16.6
